procedure.text: NCI Yeast Anticancer Drug Screen. Data for the bub3 strain (AID 167)
conditions.used: S. cerevisiae bub3 mutant strain, at 50.0 µM (retest, dose inferred, filed as 5.0), stronger effect = higher value
The panel holds about 79,000 compounds, 15% with a hit somewhere; the sample as a whole holds those more often. Calls of active or inactive are those of the source. No stated cut-off is given here; in the data, active means growth inhibition above about 70%; inactive means the rest.
assay.endpoint: growth inhibition

Request: I am curious: what growth inhibition value has been reported for "CC(CCN)(CCN)[N+](=O)[O-]" ?
Response: -1% (inactive)

Request: So what's the measured growth inhibition for this one? COc1ccc(C2c3cc4c(cc3OC(O)(CO)C2C(=O)O)OCO4)cc1 (stereo unspecified) (tested in a mixture with another compound)
Response: 95% (active)

Request: Look up growth inhibition: "COc1cccc(C=Nc2ccc(I)cc2)c1O.COc1cccc(C=Nc2ccc(I)cc2)c1O.[Co]"
Response: 9% (inactive)

Request: Return reported growth inhibition; argument: "[N-]=[N+]=NC1=CC(=O)c2cccc3cccc1c23"
Response: 99% (active)

Request: Tell me the measured growth inhibition of "CCC(CC)C(c1ccc(O)cc1)c1ccc(O)cc1" , please.
Response: 98% (active)

Request: Which value of growth inhibition has been reported for "BrCC1(CBr)COC1" in the records?
Response: 94% (active)

====

Please respond with reported growth inhibition for every item in the list.
procedure.text: NCI Yeast Anticancer Drug Screen. Data for the mlh1 rad18 strain (AID 175)
conditions.used: S. cerevisiae mlh1 rad18 strain growth inhibition; at 50.0 µM (retest, dose inferred, filed as 5.0); stronger effect = higher value
The panel holds about 79,000 compounds, 15% with a hit somewhere; the sample as a whole holds those more often.
Give just the number in %; leave the unit off.

Request: Can you look up the measured growth inhibition of "O=S(=O)(c1ccc(NC(=S)NCc2ccncc2)cc1)N1CCCCC1" for me?
Response: -8

Request: Record request: growth inhibition value, item "N#CC#Cc1cccc(C#CC#N)c1"
Response: 98

Request: What value of growth inhibition has been reported for the following compound? CC1CCC(C)(C)c2cc([N+](=O)[O-])cc([N+](=O)[O-])c21 (stereo unspecified)
Response: 99

Request: Give the measured growth inhibition of "Cc1cc(NC(=S)SCc2ccc(Cl)cc2)ccc1Br" .
Response: 99

Request: Query: growth inhibition; subject: "CCCCCCC(=O)Nc1ccc(OC(=O)CCCCCC)c(=O)cc1"
Response: 99

Request: Would you mind telling me what growth inhibition value was observed for "COC(=O)c1nnn(-c2cc(Cl)ccc2Cl)c1C(=O)c1ccc(Cl)c(Cl)c1" ?
Response: 99

====

procedure.text: NCI Yeast Anticancer Drug Screen. Data for the cln2 rad14 strain (AID 165);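 further: 0% = growth equal to vehicle treated cultures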
conditions.used: S. cerevisiae cln2 rad14 strain, at 50.0 µM, stronger effect = higher value
The panel holds about 79,000 compounds, 15% with a hit somewhere; the sample as a whole holds those more often.
Task for the reader: assign each of the following compounds its reported growth inhibition.
Numbers only; they are read as %.

Request: Sample "c1ccc2c(c1)C[N+]1(CCCCCCC1)C2" — what was its growth inhibition?
Response: 53.6

Request: Sample "CCCCCCCCCCCCCCCCCC(=O)OCCN1C(=O)c2ccccc2C1=O" — what was its growth inhibition?
Response: 71.7

Request: Using the record for COC(=O)c1ccccc1CC(Cc1ccc2c(c1)CCC2)C(=O)OC (stereo not given) , report its growth inhibition.
Response: 13.7

Request: What value of growth inhibition has been recorded for this entry: COc1ccccc1NC(c1ccccc1)c1ccc2cccnc2c1O (stereo not given)
Response: 15.2

Request: Item CCC(Cl)COP(=O)(OCC(Cl)CC)OC(c1ccc(Cl)c(Cl)c1)P(=O)(OCC(Cl)CC)OCC(Cl)CC (stereo not given) has what recorded growth inhibition?
Response: 76.2

Request: Please report the recorded growth inhibition for "COc1ccc2c(c1)CN([C@@H](C)[C@H]1CC[C@H]3[C@@H]4CC[C@H]5C[C@@H](O)CC[C@]5(C)[C@H]4CC[C@]13C)CO2" .
Response: 98.2

Request: Look up growth inhibition for this compound: "CN(C)C(=S)/N=c1\ss/c(=N\S(=O)(=O)c2ccccc2)n1-c1ccccc1"
Response: 9.6

Request: # get_value(readout='growth inhibition', item= "CCC[CH2][Sn]([CH2]CCC)([O]C(=O)c1cc(OC)c(OC)cc1OC)[O]C(=O)c1cc(OC)c(OC)cc1OC" )
Response: 91.2

Request: Give the measured growth inhibition of "O=[N+]([O-])c1ccc(-c2nc(/C=N/N3CCCCC3)cs2)o1" .
Response: 42.4

Request: Item under review: CC(C)(C)C1=NN=C2c3ccccc3C(=O)C21 (stereo not given) . Reported growth inhibition?
Response: 58.9

====

procedure.text: NCI Yeast Anticancer Drug Screen. Data for the mec2-1 strain (AID 157)
conditions.used: S. cerevisiae mec2-1 strain, at 50.0 µM
The panel holds about 79,000 compounds, 15% with a hit somewhere; the sample as a whole holds those more often. Calls of active or inactive are those of the source. Rule as the data show it: active = growth inhibition above about 70%; inactive = the rest.
Result category, one only: active, inactive

Request: For "COc1ccc(/C=N/n2c(C)nc3c(sc(=S)n3-c3ccccc3)c2=O)cc1" , what call appears in the results of this test?
Response: inactive

Request: For "Cc1ccc(NC(=O)CCc2nnc(N)n2N)cc1" , what call appears in the results of this test?
Response: active

Request: Dear colleague, could you share the recorded outcome for COc1cccc(C2c3cc4c(cc3OC(NNc3ccccc3)C2C)OCO4)c1OC (configuration not stated) when you have a moment?
Response: inactive

Request: Short answer needed: outcome of this test for N#CCC(=O)N/N=C(/CC1(O)C(=O)Nc2c(Cl)cc(Cl)cc21)c1ccccc1 (configuration not stated) ?
Response: inactive

Request: Outcome logged for "O=C(C(=O)c1ccc(Cc2ccc(C(=O)C(=O)c3ccccc3)cc2)cc1)c1ccccc1" in this assay:
Response: inactive

Request: Short answer needed: outcome of this test for OC1(c2ccccc2)CN(CCl)CC(c2ccccc2)O1 (configuration not stated) ?
Response: inactive

Request: Can you look up the reported call for "O=C1NC(=S)S/C1=C\c1cc(Cl)ccc1O" for me?
Response: inactive

Request: Tell me the recorded outcome of this test for COc1cc(O)c2c(c1)C(=O)C1=C(C2=O)[C@@H](C)OC(C)[C@H]1O (some centres not stated) .
Response: inactive

Request: Which outcome was assigned to "C[n+]1c2ccc(Cl)cc2nc2cc(-c3ccccc3)ccc21" in this test?
Response: active

Request: Dear all, I need the recorded test outcome for "N#Cc1ccccc1[N+](=O)[O-]" , thank you.
Response: inactive

Request: Kindly provide the recorded test outcome for the following compound: "CCCc1cc(-c2ccc(O)c(CCC)c2)ccc1O"
Response: active

Request: Given "CC1(C)C(=O)N(CCCCCCN2C(=O)C(C)(C)c3ccccc32)c2ccccc21" , state the outcome it received in this test.
Response: active

Request: Please indicate how the test categorized "O=C(CBr)c1cc(-c2ccc(Cl)cc2)nc2ccccc12" .
Response: active

Request: Query: recorded result category for COc1cc2c(cc1OC)NCC1COc3c(ccc(OC)c3OC)C1=N2 (configuration not stated) in this test
Response: inactive

Request: Per the records of this test, what outcome belongs to "N#Cc1c(Cl)nsc1-c1ccc([N+](=O)[O-])cc1" ?
Response: active

Request: Test call for this compound, please: "CCOC(=O)C(=C=Cc1cccs1)C(=O)c1ccccc1"
Response: active

Request: Write down the call the test reported for this compound. Item: "S=C(N/N=C1/CCCC/C1=N/NC(=S)N1CCOCC1)N1CCOCC1"
Response: active

Request: GET /call?item= CCC(c1ccc(OC)cc1)C(O)(CC)c1ccc(OC)cc1 (configuration not stated) returns the recorded outcome of this test.
Response: active

Request: Give the logged outcome of this assay for the following compound: "N#CS/C(C(Cl)=C(Cl)Cl)=C(/Cl)[N+](=O)[O-]"
Response: active

Request: Test call, this compound: "CC(=O)Nc1c(Cl)ccc2c1Cc1cc([N+](=O)[O-])ccc1-2"
Response: inactive

Request: Could you please tell me the result logged for "O=Cc1nc2c3cccnc3ccc2n1Cc1ccccc1" in this assay?
Response: inactive

Request: Which outcome was entered for the compound "ICCCCSc1cc(-c2ccccc2)[o+]c2ccccc12" in this test?
Response: active

Request: I'd appreciate the recorded outcome for "CN(C)CCC(=O)c1ccc2c(ccc3ccccc32)c1" from this test.
Response: inactive

Request: Give the logged outcome of this assay for the following compound: "CC(C)C(=O)c1ccc2ccccc2c1O"
Response: inactive

Request: Assay outcome for O=[N+]([O-])c1ncn(C2OC(CO)C(O)C2O)c1S (configuration not stated) : what was it?
Response: inactive

Request: Dear all, I need the recorded test outcome for "ClCc1ccccc1Cc1ccccc1" , thank you.
Response: active

Request: Query: recorded result category for "[N-]=[N+]=NC1=CC(=O)c2cccc3cccc1c23" in this test
Response: active

Request: Short answer needed: outcome of this test for NC(=O)N/N=C/C(O)C(O)C(O)C(O)CO (configuration not stated) ?
Response: inactive

Request: What is the recorded call for this compound in the test? CCC1=CCC2C(=O)c3cc4ccccc4cc3C(=O)C2C1 (configuration not stated)
Response: active

Request: Answer briefly: the call reported for "S=C(NC(=S)Nc1ccccc1)Nc1ccccc1" in this assay.
Response: active

Request: Name the outcome recorded for "CC[C@@]1(OP(=O)(O)O)C(=O)OCc2c1cc1n(c2=O)Cc2cc3ccccc3nc2-1" in the assay.
Response: active

Request: What outcome does the record of this test show for "CCCCc1ccc2c(c1)Nc1cc3ccccc3cc1N2" ?
Response: inactive

Request: What did this assay record as the result for "CCCCC(C)(C)OC(=O)Nc1ccc(Br)cc1" ?
Response: active

Request: # outcome recorded in this test, key = "O=C(O)Cc1c(-c2noc(-c3ccccc3)c2CC(=O)O)noc1-c1ccccc1"
Response: inactive

Request: State the result this test recorded for "COC(=O)c1cc(-c2ccc([N+](=O)[O-])cc2)c2c(=O)n(-c3ccccc3)[nH]c2n1" .
Response: active

Request: Recorded test outcome, item "Nc1nc(-c2ccccc2)nc(Cl)c1I"
Response: inactive

Request: Assay outcome for "CC(=O)c1cccc(NC(=O)C(=O)NNc2n[nH]c(=S)n2N)c1" : what was it?
Response: active

Request: // param item: "CC[N+](C)(CC)CCC[n+]1c(-c2ccccc2)c2cc(N)ccc2c2ccc(N)cc21" ; yields the recorded call
Response: inactive

Request: Called result for "O=[N+]([O-])c1cc(Cc2cc([N+](=O)[O-])c3cccnc3c2O)c(O)c2ncccc12"
Response: active

Request: Please let me know the test result on file for "Nc1ccccc1/C=C/c1c[nH]c2ccccc12" .
Response: active

Request: Look up the recorded call for CC1(C(Cl)(Cl)Cl)C=CC(=NO)C=C1 (configuration not stated) in this test.
Response: inactive

Request: I would be grateful if you could indicate the recorded call for "O=C(O)C(S(=O)(=O)O)S(=O)(=O)O" .
Response: active

Request: Field: outcome | Entry: CNC(=O)OC1/C(C)=C\C(C)C(O)C(OC)CC(C)CC2=C(OC)C(=O)C=C(C2=O)N(C)C(=O)/C(C)=C/C=C\C1OC (configuration not stated)
Response: active

Request: State the result this test recorded for "CCOC(=O)c1[nH]cc(C)c1-c1ccc2c(-c3ccccc3)nc3ccccc3n12" .
Response: inactive

Request: Recorded test outcome, item "O=C(O)c1ccc2ccccc2c1C(=O)c1cccc2ccccc12"
Response: active

Request: Call for entry "CCCSc1ncnc2nc(C)[nH]c12" :
Response: inactive

Request: Returns: the outcome recorded for "COC(=O)CSc1nc2[nH]c(SC)c(C(N)=O)c2c(=O)n1-c1ccccc1" in this assay.
Response: inactive
